- Tested on: Glucose-6-Phosphatase-System
- test-method-notes: Glucose-6-phosphatase enzyme test in liver microsomes (phosphate released from glucose-6-phosphate)
- Format: biochemical, Wistar-Ratten
- measurement-context: Inhibitorkonzentration 12,5 µM; Glucose-6-Phosphat 1 mMol/l, 0,1 mg Mikrosomen-Fraktion, pH 7,0, 20 min, room temperature; 12.5 µM
Assign % Hemmung to each entry below.
Response body: numeric value in %, unit text excluded.

Task: Look up and report measured % Hemmung for this entry: Cc1ccc(C#Cc2ccc(NC(=O)c3cccc(C(F)(F)F)c3)cc2C(=O)O)cc1
Result: 50

Task: Indicate the recorded % Hemmung value for this compound: Cc1ccc(C#Cc2ccc(NC(=O)c3cccc([N+](=O)[O-])c3)cc2C(=O)O)cc1
Result: 50

Task: Please supply the value of reported % Hemmung for the item O=C(O)c1cc(NC(=O)c2c(F)c(F)c(F)c(F)c2F)ccc1C#Cc1ccccc1
Result: 54

Task: Supply % Hemmung value. Item: Cc1ccc(C#Cc2ccc(NC(=O)C(C)C)cc2C(=O)O)cc1
Result: 94

* * *

- Test system: Glucose-6-Phosphatase-System
- test-method-notes: Glucose-6-phosphatase enzyme test in liver microsomes (phosphate released from glucose-6-phosphate)
- Format: biochemical, Wistar-Ratten
- measurement-context: Inhibitorkonzentration 100 µM; Glucose-6-Phosphat 1 mMol/l, 0,1 mg Mikrosomen-Fraktion, pH 7,0, 20 min, room temperature
Label Met when % Hemmung >= 60%; otherwise Not met.

Task: Identify whether the reported % Hemmung of the following compound is 60% or greater: COc1ccc2cc(-c3ccc(NC(=O)c4cccs4)cc3C(=O)O)ccc2c1
Result: Met

Task: Determine whether this compound has % Hemmung no lower than 60%: COc1ccc2cc(-c3ccc(NC(=O)CCC4CCCC4)cc3C(=O)O)ccc2c1
Result: Met

Task: Would you say O=C(Nc1ccc(-c2ccco2)c(C(=O)O)c1)c1ccc2ccccc2c1 shows % Hemmung at minimum 60%?
Result: Not met

Task: Hi team, for O=C(Nc1ccc(CCCCCl)c(C(=O)O)c1)Nc1ccc(Cl)c(C(F)(F)F)c1 , is the recorded % Hemmung at or above 60%?
Result: Met

Task: Does % Hemmung meet or surpass 60% for O=C(Nc1ccc(-c2ccc(Cl)s2)c(C(=O)O)c1)c1ccc2ccccc2c1 ?
Result: Met

Task: Dear colleague, could you confirm whether COc1ccc2cc(-c3ccc(NC(=O)C=Cc4ccccc4)cc3C(=O)O)ccc2c1 has % Hemmung at or above 60%?
Result: Not met
